Experimental setup: in n-butyl acetate, 308.17 K
Endpoint label: solubility (mole fraction)
Please give the numeric answer without any surrounding text.

Query string: Value lookup for solubility (mole fraction); key = c1nc[nH]n1
Result string: 0.032

====

Experimental setup: in ethyl acetate, 313.2 K
Endpoint label: solubility (mole fraction)
Please give the numeric answer without any surrounding text.

Query string: Value lookup for solubility (mole fraction); key = c1nc[nH]n1
Result string: 0.0578

====

Experimental setup: in isopropanol, 323.27 K
Endpoint label: solubility (mole fraction)
Please give the numeric answer without any surrounding text.

Query string: Value lookup for solubility (mole fraction); key = c1nc[nH]n1
Result string: 0.278

====

Experimental setup: in isopropanol, 313.24 K
Endpoint label: solubility (mole fraction)

Query string: Value lookup for solubility (mole fraction); key = c1nc[nH]n1
Result string: 0.232

====

Experimental setup: in ethanol, 303.15 K
Endpoint label: solubility (mole fraction)

Query string: Value lookup for solubility (mole fraction); key = c1nc[nH]n1
Result string: 0.205

====

Experimental setup: in ethanol, 328.27 K
Endpoint label: solubility (mole fraction)
Please give the numeric answer without any surrounding text.

Query string: Value lookup for solubility (mole fraction); key = c1nc[nH]n1
Result string: 0.339

====

Experimental setup: in ethyl acetate, 293.21 K
Endpoint label: solubility (mole fraction)
Please give the numeric answer without any surrounding text.

Query string: Value lookup for solubility (mole fraction); key = c1nc[nH]n1
Result string: 0.0365

====

Experimental setup: in n-butyl acetate, 363.26 K
Endpoint label: solubility (mole fraction)
Please give the numeric answer without any surrounding text.

Query string: Value lookup for solubility (mole fraction); key = c1nc[nH]n1
Result string: 0.211

====

Experimental setup: in propylene glycol, 328.22 K
Endpoint label: solubility (mole fraction)

Query string: Value lookup for solubility (mole fraction); key = c1nc[nH]n1
Result string: 0.483

====

Experimental setup: in n-butyl acetate, 303.24 K
Endpoint label: solubility (mole fraction)
Please give the numeric answer without any surrounding text.

Query string: Value lookup for solubility (mole fraction); key = c1nc[nH]n1
Result string: 0.0279

====

Experimental setup: in n-butyl acetate, 313.28 K
Endpoint label: solubility (mole fraction)

Query string: Value lookup for solubility (mole fraction); key = c1nc[nH]n1
Result string: 0.037

====

Experimental setup: in ethanol, 293.21 K
Endpoint label: solubility (mole fraction)
Please give the numeric answer without any surrounding text.

Query string: Value lookup for solubility (mole fraction); key = c1nc[nH]n1
Result string: 0.164

====

Experimental setup: in propylene glycol, 298.16 K
Endpoint label: solubility (mole fraction)
Please give the numeric answer without any surrounding text.

Query string: Value lookup for solubility (mole fraction); key = c1nc[nH]n1
Result string: 0.284

====

Experimental setup: in ethyl acetate, 308.27 K
Endpoint label: solubility (mole fraction)

Query string: Value lookup for solubility (mole fraction); key = c1nc[nH]n1
Result string: 0.0513

====

Experimental setup: in methyl acetate, 298.21 K
Endpoint label: solubility (mole fraction)

Query string: Value lookup for solubility (mole fraction); key = c1nc[nH]n1
Result string: 0.128

====

Experimental setup: in isopropanol, 303.27 K
Endpoint label: solubility (mole fraction)
Please give the numeric answer without any surrounding text.

Query string: Value lookup for solubility (mole fraction); key = c1nc[nH]n1
Result string: 0.193

====

Experimental setup: in propylene glycol, 288.27 K
Endpoint label: solubility (mole fraction)
Please give the numeric answer without any surrounding text.

Query string: Value lookup for solubility (mole fraction); key = c1nc[nH]n1
Result string: 0.212
